- EXPERIMENTAL_TARGET: DRB1*0301 (Homo sapiens, UniProt P01903+P01911, A100K/A102G/A103R/A169T/F55Y/I96L/K41T/L162R/M171V/P40S/Q125H/Q178H/Q39Y/R42S/S66N/T106N/T262R/W38E/Y61H)
- Sequence (P01903 26-254 limits assumed, other chains not shown): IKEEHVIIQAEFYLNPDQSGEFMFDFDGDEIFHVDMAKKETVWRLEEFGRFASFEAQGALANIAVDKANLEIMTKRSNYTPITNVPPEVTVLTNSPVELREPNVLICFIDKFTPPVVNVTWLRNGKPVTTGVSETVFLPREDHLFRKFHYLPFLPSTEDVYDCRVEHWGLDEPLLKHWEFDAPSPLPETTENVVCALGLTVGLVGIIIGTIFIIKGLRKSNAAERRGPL
- PROTOCOL_DETAILS: biochemical
pIC50: −log10 of the molar value.
Listing of recorded pIC50 by entry.

Solved entries (count: 2):
COMPOUND	OBSERVED_MEASUREMENT
CC(C)C[C@H](NC(=O)[C@H](CC(=O)O)NC(=O)[C@@H](NC(=O)[C@@H](NC(=O)[C@H](CCC(=O)O)NC(=O)[C@@H]1CCCN1C(=O)[C@H](CCC(N)=O)NC(=O)[C@H](CC(C)C)NC(=O)[C@H](CC(=O)O)NC(=O)[C@@H](N)CC(C)C)[C@@H](C)O)[C@@H](C)O)C(=O)N[C@@H](Cc1ccc(O)cc1)C(=O)N[C@@H](CS)C(=O)N[C@@H](Cc1ccc(O)cc1)C(=O)N[C@@H](CCC(=O)O)C(=O)N[C@@H](CCC(N)=O)C(=O)O [Peptide 1543.04]	6.23
CSCC[C@H](NC(=O)CNC(=O)CNC(=O)[C@H](CCCNC(=N)N)NC(=O)[C@@H](NC(=O)[C@H](CCC(N)=O)NC(=O)[C@H](C)NC(=O)[C@@H](NC(=O)[C@@H](NC(=O)[C@H](CC(C)C)NC(=O)[C@H](Cc1c[nH]cn1)NC(=O)[C@H](Cc1ccc(O)cc1)NC(=O)[C@@H](N)CCCCN)[C@@H](C)O)C(C)C)C(C)C)C(=O)N[C@H](C(=O)N[C@@H](Cc1ccccc1)C(=O)O)C(C)C [Peptide 68.0120]	< 4.70

Next, consider the following compound.
Endpoint output: pIC50 of CC[C@H](C)[C@H](NC(=O)[C@H](CC(C)C)NC(=O)[C@H](CCCCN)NC(=O)[C@H](CCCCN)NC(=O)[C@@H](N)Cc1ccc(O)cc1)C(=O)N[C@@H](CCSC)C(=O)N[C@@H](Cc1ccc(O)cc1)C(=O)N[C@@H](CO)C(=O)N[C@@H](C)C(=O)N[C@@H](Cc1c[nH]cn1)C(=O)N[C@@H](CC(=O)O)C(=O)N[C@H](C(=O)N[C@H](C(=O)N[C@H](C(=O)N[C@@H](CO)C(=O)O)C(C)C)[C@@H](C)O)[C@@H](C)O [Peptide 68.0049] . Value?
< 4.70

----------
Listing of recorded log10 of IC50 by entry.
- EXPERIMENTAL_TARGET: HLA-A1 (A*0101) (Homo sapiens, UniProt P04439, A114D/A174V/A182V/D101N/D185E/E176A/E190D/L180R/Q94H/R68K/S129P/T187R/V100A/V91M/W191G)
- PROTOCOL_DETAILS: biochemical
- Assay type: binding
No end group written: not given here.
A value of 2 here means IC50 of 100 in nM, since values are log10.

Solved entries (count: 5):
                 sequence_input  observed_measurement
0   LSDLQDSGY [Peptide 1580.15]                  0.23
1   HIGPGRAFY [Peptide 1595.03]                  3.12
2  MTETLNNTEY [Peptide 1593.15]                  1.89
3   VQEKILDLY [Peptide 86.0149]                  3.16
4   ATLERTEVY [Peptide 78.0252]                  2.82

Next, consider the following sequence.
Endpoint output: log10 of IC50 of YSDVRKYRY [Peptide 1549.49] . Value?
1.26
